As shown below, each of these molecules has a reported HSD17B13 Enzymatic Activity Relative Light Units value.
- target: UniProtKB Q7Z5P4
- Sequence (Q7Z5P4 20-300): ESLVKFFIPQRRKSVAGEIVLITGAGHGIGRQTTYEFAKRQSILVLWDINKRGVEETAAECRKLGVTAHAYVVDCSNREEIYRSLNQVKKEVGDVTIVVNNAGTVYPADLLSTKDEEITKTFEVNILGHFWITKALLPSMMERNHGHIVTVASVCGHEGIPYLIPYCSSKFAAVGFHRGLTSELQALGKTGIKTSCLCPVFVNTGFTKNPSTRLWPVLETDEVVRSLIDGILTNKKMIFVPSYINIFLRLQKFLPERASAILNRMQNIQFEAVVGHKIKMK
- test summary: Substrate screening of steroid and bioactive lipid libraries against purified recombinant HSD17B13 (NADH-linked luciferase assay)
- Type: biochemical
- assay conditions: Bioactive Lipid Library, 5 μM bioactive lipid (Estradiol Control 50 μM), 500 μM NAD+, 100 ng enzyme, 3 hours at 23° C.
Field format: number, assumed RLU, no unit text.

// worked examples, HSD17B13 Enzymatic Activity Relative Light Units included
{"columns": ["molecule", "measured result"],
 "data": [
  ["CCCCC/C=C\\C/C=C\\C/C=C\\C[C@H]1O[C@H]1CCCC(=O)NCCO (racemic) [(±)5(6)-EET Ethanolamide]", 450160],
  ["CC/C=C\\C/C=C\\C/C=C\\C/C=C\\C/C=C\\CC1OC1CCC(=O)OC (racemic) [(±)4(5)-EpDPA methyl ester]", 338320],
  ["CCCCC[C@H](O)/C=C/C=C\\CCCCCCCC(=O)O [13(S)-HODE]", 792800],
  ["CC/C=C\\C[C@@H](/C=C/C=C\\CCCCCCCC(=O)O)OO [13(S)-HpOTrE]", 35320],
  ["CCCCC/C=C\\C=C\\[C@H](O)CCCCCCCCCC(=O)O (racemic) [(±)11-HEDE]", 1334080]
]}

For the next question, use this molecule.
Request: What reported HSD17B13 Enzymatic Activity Relative Light Units corresponds to "C[C@@H](O)CCC[C@H](O)CC[C@H]1[C@H](O)CC(=O)[C@@H]1CCCCCCC(=O)O" on UniProtKB Q7Z5P4?
Response: 337040

----------
- target: HSD17B5 (Homo sapiens)
- Construct: made in house
- Sequence (P42330 whole entry): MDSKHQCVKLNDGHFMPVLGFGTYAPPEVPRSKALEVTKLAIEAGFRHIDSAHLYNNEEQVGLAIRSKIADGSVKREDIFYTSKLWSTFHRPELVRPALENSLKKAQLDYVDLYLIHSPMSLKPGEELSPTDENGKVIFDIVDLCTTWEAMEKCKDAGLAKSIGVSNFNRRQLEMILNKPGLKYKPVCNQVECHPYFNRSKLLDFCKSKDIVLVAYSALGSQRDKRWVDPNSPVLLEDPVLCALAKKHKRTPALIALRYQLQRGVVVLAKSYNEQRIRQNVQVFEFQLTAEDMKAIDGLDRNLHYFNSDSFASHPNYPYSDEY
- test summary: Steroid substrate panel against HSD17B family member B5
- Format: biochemical
- assay conditions: substrate at 50 μM; estradiol set as 100%
value kind: Percent of Control (POC), B5 (%)
Supply the numeric figure in %, leaving out any unit text.

Some molecules with known Percent of Control (POC), B5 results, for comparison:
{"columns": ["molecule", "target", "value kind", "measured result"],
 "data": [
  ["C[C@]12CC[C@@H](O)C[C@@H]1CC[C@@H]1[C@@H]2CC[C@]2(C)[C@@H](O)CC[C@@H]12", "HSD17B5 (Homo sapiens)", "Percent of Control (POC), B5", 196],
  ["C[C@]12CC[C@@H](O)C[C@H]1CC[C@@H]1[C@@H]2C(=O)C[C@]2(C)C(=O)CC[C@@H]12", "HSD17B5 (Homo sapiens)", "Percent of Control (POC), B5", 13]
]}

Here's the next entry for you.
Request: Name the recorded Percent of Control (POC), B5 for C[C@]12CC[C@@H](O)C[C@H]1CC[C@@H]1[C@@H]2C(=O)C[C@@]2(C)[C@H]1CC[C@]2(O)C(=O)CO [TetrahydroCortisone] .
Response: 104

----------
Documented Percent of Control (POC), B2 across a set of compounds
- target: HSD17B2 (Homo sapiens)
- Construct: made in house
- Sequence (P37059 whole entry): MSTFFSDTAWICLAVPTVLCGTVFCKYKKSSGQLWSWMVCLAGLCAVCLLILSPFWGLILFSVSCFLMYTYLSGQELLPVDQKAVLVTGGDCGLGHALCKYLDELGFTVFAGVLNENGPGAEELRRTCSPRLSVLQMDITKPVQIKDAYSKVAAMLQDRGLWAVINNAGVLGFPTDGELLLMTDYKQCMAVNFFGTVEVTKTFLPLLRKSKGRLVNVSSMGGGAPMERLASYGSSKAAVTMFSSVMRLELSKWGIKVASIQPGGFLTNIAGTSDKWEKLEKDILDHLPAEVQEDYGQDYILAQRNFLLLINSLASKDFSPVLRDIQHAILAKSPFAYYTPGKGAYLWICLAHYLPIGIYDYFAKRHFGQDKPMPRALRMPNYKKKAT
- test summary: Steroid substrate panel against HSD17B family member B2
- Assay type: biochemical
- assay conditions: substrate at 50 μM; estradiol set as 100%
Your answer should be a plain number; it is taken to be in %.

{"columns": ["compound", "measured result"],
 "data": [
  ["CC[C@H]1[C@@H](O)[C@@H]2[C@H](CC[C@]3(C)[C@@H]([C@H](C)CCC(=O)O)CC[C@@H]23)[C@@]2(C)CC[C@@H](O)C[C@@H]12", 0.1],
  ["CC1(C)[C@@H](O[C@H]2O[C@H](C(=O)O)[C@@H](O)[C@H](O)[C@H]2O[C@@H]2O[C@H](C(=O)O)[C@@H](O)[C@H](O)[C@H]2O)CC[C@]2(C)[C@H]3C(=O)C=C4[C@@H]5C[C@@](C)(C(=O)O)CC[C@]5(C)CC[C@@]4(C)[C@]3(C)CC[C@@H]12", 0.0],
  ["C[C@]12CC[C@@H](O)C[C@@H]1CC[C@@H]1[C@@H]2CC[C@]2(C)[C@@H](O)CC[C@@H]12", 6.2],
  ["C[C@]12CC[C@@H](O)C[C@@H]1CC[C@@H]1[C@@H]2[C@@H](O)C[C@@]2(C)[C@H]1CC[C@]2(O)C(=O)CO [5alpha-Tetrahydrocortisol]", 3.1],
  ["C[C@]12CC[C@H](O)C[C@@H]1CC[C@@H]1[C@@H]2CC[C@]2(C)[C@@H](O)CC[C@@H]12", 42.5],
  ["C[C@]12CC[C@@H](O)C[C@H]1CC[C@@H]1[C@@H]2C(=O)C[C@@]2(C)[C@H]1CC[C@]2(O)C(=O)CO [TetrahydroCortisone]", 1.0]
]}

Request: Give recorded Percent of Control (POC), B2 with HSD17B2 (Homo sapiens) for the following compound: C[C@]12CCC(O)C[C@@H]1CC[C@@H]1[C@@H]2CC[C@]2(C)[C@@H](O)CC[C@@H]12 (stereo partly shown)
Response: 46.9

Request: Try the compound "C[C@]12CC[C@H]3[C@@H](CCC4=CC(=O)CC[C@@]43C)[C@@H]1CC[C@@H]2O"
Response: 96.2

Request: // next record "C[C@]12CC[C@@H](O)C[C@@H]1CC[C@@H]1[C@@H]2CC[C@]2(C)C(=O)CC[C@@H]12"
Response: 1.0

Request: Continue with "C[C@]12CC[C@@H]3c4ccc(O)cc4CC[C@H]3[C@@H]1CC[C@@H]2O"
Response: 100

Request: Same question for "C[C@H](O)[C@@]1(O)CC[C@H]2[C@@H]3CC[C@@H]4C[C@H](O)CC[C@]4(C)[C@H]3CC[C@@]21C" please.
Response: 6.1

Request: Next entry: CC(=O)OCC(=O)[C@H]1CC[C@H]2[C@@H]3CCC4=CC(=O)CC[C@]4(C)[C@H]3[C@@H](O)C[C@]12C [Corticosterone 21-acetate]
Response: 0.0

Request: Consider next the compound "C[C@]12CC[C@@H](O)C[C@@H]1CC[C@@H]1[C@@H]2C(=O)C[C@]2(C)C(=O)CC[C@@H]12" in the same way.
Response: 0.0

Request: What would you report for "C[C@]12CC[C@@H](O)C[C@H]1CC[C@@H]1[C@@H]2C(=O)C[C@]2(C)C(=O)CC[C@@H]12" ?
Response: 0.0

Request: What would you report for C[C@]12CC[C@@H](O)C[C@@H]1CC[C@@H]1[C@@H]2CC[C@]2(C)C(=O)[C@H](O)C[C@@H]12 [16alpha-Hydroxyandrosterone] ?
Response: 1.5

Request: Same question for C[C@]12CCC(=O)C[C@@H]1CC[C@@H]1[C@@H]2CC[C@]2(C)[C@@H](O)CC[C@@H]12 [DHT, dihydroxy testosterone (DHT)] please.
Response: 61.2

Data provenance: patent US11479802B2
